Recorded values, source the Deep4Chem optical property database.

Answer each item with its documented absorption maximum.
experiment: solvent given as SMILES; conditions: in CC#N
Expressed in nm, but write only the number.

What absorption maximum value was documented for this compound, N#Cc1ccc(N(c2ccc(C#N)cc2)c2ccc3c4cccc5c(N(c6ccc(C#N)cc6)c6ccc(C#N)cc6)ccc(c6cccc2c63)c54)cc1 ?
446

What absorption maximum value was documented for this compound, CN(C)c1ccc(/C=C/c2cccnn2)cc1 ?
369

What absorption maximum value was documented for this compound, CC(=O)O[B-]1(OC(C)=O)OC(/C=C/c2ccc(C)cc2)=CC(/C=C/c2ccc(C)cc2)=[O+]1 ?
434

What absorption maximum value was documented for this compound, COc1ccc2oc(-c3cc4cc(OC)ccc4oc3=O)cc2c1 ?
382

What absorption maximum value was documented for this compound, CC(C)[Si]1(C(C)C)c2cc(C=C(C#N)C#N)ccc2-c2ccc(N(C)C)cc21 ?
475

What absorption maximum value was documented for this compound, Cc1ccc(C2=C3C=CC(Cl)=[N+]3[B-](F)(F)n3c(Cl)ccc32)cc1 ?
508

What absorption maximum value was documented for this compound, O=C1Cc2cc3c(cc2CCCc2ccc(cc2)CCC3)CC(=O)Cc2ccc(c3nsnc23)C1 ?
404

What absorption maximum value was documented for this compound, COc1cc2cc(C#Cc3ccc(/C=C(\C#N)C(=O)O)cc3)c(=O)oc2cc1OC ?
398

What absorption maximum value was documented for this compound, CCOc1cc2c(cc1/C=C/C1=CC(=C(C#N)C#N)CC(C)(C)C1)c1ccccc1n2CC ?
474

What absorption maximum value was documented for this compound, C(/C=C/c1cc2c3c(c1)CCCN3CCC2)=C\c1ccncc1 ?
413

What absorption maximum value was documented for this compound, C[C@@]12SC(Cl)=CC1=c1nc(-c3ccc(Cl)cc3)[nH]c1=C1C=C(Cl)S[C@]12C ?
327

What absorption maximum value was documented for this compound, COc1ccc(C2CC(c3ccc(O)cc3)=NN2c2ccc(S(N)(=O)=O)cc2)cc1 (stereo not given) ?
358

What absorption maximum value was documented for this compound, CCCC(=O)c1c(OCOC)c(OCOC)c(C(=O)CCC)c2c1OCO2 ?
332

What absorption maximum value was documented for this compound, COc1ccc2cc(/C=C/c3ccccc3)c(=O)oc2c1 ?
366

What absorption maximum value was documented for this compound, CC(=O)[B-]1(C(C)=O)OC(C)=CC(c2ccc3ccccc3c2)=[O+]1 ?
380

What absorption maximum value was documented for this compound, CCN(CC)c1ccc(/C=N/C(C#N)=C(C#N)\N=C\c2ccc(N(CC)CC)cc2O)c(O)c1 ?
564

What absorption maximum value was documented for this compound, c1ccc2nc3c(nc2c1)c1c2n3CCCN2CCCC1 ?
419

What absorption maximum value was documented for this compound, CC(=O)OC[C@H]1O[C@@H](OCC#Cc2ccc(C3=C4C(C)=CC(/C=C/c5ccc(N(C)C)cc5)=[N+]4[B-](F)(F)n4c(/C=C/c5ccc(N(C)C)cc5)cc(C)c43)cc2)[C@H](OC(C)=O)C(OC(C)=O)[C@@H]1OC(C)=O (stereo not given in full) ?
701

What absorption maximum value was documented for this compound, C(=C\c1nc2ccccc2s1)/c1ccc(-c2nc3c4cccnc4c4ncccc4c3[nH]2)cc1 ?
380

What absorption maximum value was documented for this compound, COc1ccc(C(=O)/C=C/c2ccc(N(C)C)cc2)cc1OC ?
412

What absorption maximum value was documented for this compound, C(=C\c1nc(-c2ccccc2)c2ccccn12)/c1nc(-c2ccccc2)c2ccccn12 ?
438

What absorption maximum value was documented for this compound, CSc1sc(C(C)=O)c2nn[nH]c(=O)c12 ?
393

What absorption maximum value was documented for this compound, Cc1cnc(NC(=O)C2=C([O-])c3ccccc3S(=O)(=O)N2C)s1 ?
371

What absorption maximum value was documented for this compound, CC1(C)c2cc(C#N)ccc2-c2ccc(N3c4ccccc4Oc4ccccc43)cc21 ?
375

What absorption maximum value was documented for this compound, CN(C)c1ccc(/C=C/c2cc[n+](C)cc2)cc1 ?
470

What absorption maximum value was documented for this compound, CC1(C)CCc2c(c3ccccc3c3nc4c5c(c6ccccc6c4nc23)OC(C)(C)CC5)O1 ?
459.98

What absorption maximum value was documented for this compound, Cc1cc(C(F)(F)F)nc2c1ccc1nc(-c3ccc(Cl)cc3)cn12 ?
362.6

What absorption maximum value was documented for this compound, Cc1cc(O)c(C(C)C)cc1/N=C/c1ccc(O)cc1 ?
334

What absorption maximum value was documented for this compound, Cc1cc2nc3c(=O)[nH]c(=O)n(C)c3nc2cc1C ?
379

What absorption maximum value was documented for this compound, CC1(C)CC(NCc2ccc3ccc4cccc5ccc2c3c45)CC(C)(C)N1[O] ?
341

What absorption maximum value was documented for this compound, N#Cc1cc2ccc(O)cc2oc1=N ?
356

What absorption maximum value was documented for this compound, c1ccc(N2c3ccc4ccccc4c3-c3c4ccccc4nc[n+]3[B-]2(c2ccccc2)c2ccccc2)cc1 ?
527

What absorption maximum value was documented for this compound, Cc1cn(C(F)(F)F)c(=O)[nH]c1=O ?
255

What absorption maximum value was documented for this compound, N#CC1=C(c2ccc(-c3cccs3)s2)CCC1 ?
362

What absorption maximum value was documented for this compound, O=C1NC(=O)c2c1c1c3ccccc3[nH]c1c1[nH]c3ccccc3c21 ?
402

What absorption maximum value was documented for this compound, COC(=O)c1cc(=O)n(C)c2cc(-c3ccccc3N(C)C)sc12 ?
402

What absorption maximum value was documented for this compound, CN(C)c1ccc2nc(/C=C/c3ccccc3)c(=O)oc2c1 ?
463

What absorption maximum value was documented for this compound, COC(=O)C[C@H](NC(=O)[C@H](Cc1c[nH]c2ccccc12)NC(=O)OC(C)(C)C)C(=O)OC ?
280

What absorption maximum value was documented for this compound, COc1cccc(C2=CC3=C(c4c(C)cc(C)cc4C)c4cc(-c5cccc(OC)c5)c(-c5cccc(OC)c5)n4[B-](F)(F)[N+]3=C2c2cccc(OC)c2)c1 ?
581

What absorption maximum value was documented for this compound, CC(=O)[B-]1(C(C)=O)OC(c2ccccc2)=CC(c2ccccc2)=[O+]1 ?
377

----------
assay: solvent given as SMILES; details: in ClCCl
Answer each item with its documented absorption maximum.
The answer consists of two parts: a number and, after it, its unit.

What absorption maximum value was documented for this compound, CCN(CC)c1ccc(/N=N/c2nc3ccc([N+](=O)[O-])cc3s2)cc1 ?
549 nm

What absorption maximum value was documented for this compound, COc1ccc(/C=C/c2cc(/C=C/c3ccc(OC)cc3)nc(/C=C/c3ccc(N(C)C)cc3)n2)cc1 ?
370 nm

What absorption maximum value was documented for this compound, CN(C)c1ccc(N2c3sc4ccccc4c3Sc3sc4ccccc4c32)cc1 ?
319 nm

What absorption maximum value was documented for this compound, CC1=C(I)C(C)=[N+]2C1=C(c1c(-c3ccccn3)nc3ccccn13)c1c(C)c(I)c(C)n1[B-]2(F)F ?
554 nm

What absorption maximum value was documented for this compound, CCN1C(=CC2=C([O-])C(=Cc3sc4ccccc4[n+]3CC)C2=O)Sc2ccccc21 ?
670 nm

What absorption maximum value was documented for this compound, Cc1cc(C)c(B(c2ccc(-c3nc4c5ccccc5c5ccccc5c4[nH]3)cc2)c2c(C)cc(C)cc2C)c(C)c1 ?
376 nm

What absorption maximum value was documented for this compound, CC(C)c1cccc(C(C)C)c1N1C(=O)c2ccc3c(-c4ccc(C(=O)O)cc4)c4c5ccc6c7c(ccc(c(-c8ccc(C(=O)O)cc8)c4c4ccc(c2c34)C1=O)c75)C(=O)N(c1c(C(C)C)cccc1C(C)C)C6=O ?
622 nm

What absorption maximum value was documented for this compound, C(=C\c1nc2ccccc2s1)/c1ccc(-c2nc3c4cccnc4c4ncccc4c3[nH]2)cc1 ?
384 nm

----------
Answer each item with its documented absorption maximum.
assay: solvent given as SMILES; conditions: in CCCO

What absorption maximum value was documented for this compound, COc1ccc2c(=O)c3c([nH]c2c1)-c1ccccc1NC3(C)C ?
421 nm

What absorption maximum value was documented for this compound, Cc1nc2c(c[n+]1C)CN1C(=O)N([C@H]3O[C@@H](CO)[C@H](O)[C@@H]3O)C=CC1=N2 ?
390 nm

What absorption maximum value was documented for this compound, C[n+]1ccc(-c2ccc([O-])cc2)cc1 ?
441 nm

What absorption maximum value was documented for this compound, Cc1cnc(NC(=O)C2=C([O-])c3ccccc3S(=O)(=O)N2C)s1 ?
368 nm

What absorption maximum value was documented for this compound, CN(C)c1ccc(/C=C/C=C2\CC/C(=C\c3ccc(N(C)C)cc3)C2=O)cc1 ?
499 nm

What absorption maximum value was documented for this compound, C(=C\c1ccnc2ccccc12)/c1ccc(/C=C/c2ccnc3ccccc23)cc1 ?
374 nm

What absorption maximum value was documented for this compound, CCN(CC)c1ccc2c(C)cc(=O)oc2c1 ?
376 nm

What absorption maximum value was documented for this compound, CC1=C(C(C)(C)C)C(C)=[N+]2C1=C(C)c1c(C)c(C(C)(C)C)c(C)n1[B-]2(F)F ?
525.3 nm

What absorption maximum value was documented for this compound, COCCOc1cc(C=O)c(OCCOC)cc1C=O ?
363 nm

What absorption maximum value was documented for this compound, Cc1ccccc1/C(C#N)=C/c1ccc(N(C)C)cc1 ?
374 nm

What absorption maximum value was documented for this compound, CN(C)c1ccc(/C=C2\CC/C(=C\c3ccc(C#N)cc3)C2=O)cc1 ?
473 nm
